Biological target: T1, hMC5-R (human, UniProt P33032 1-325)
T1 construct: whole, on cells; Assayed as membranes of CHO-K1 cells expressing the receptor; also called hMC-R receptor subtype 5; melanocortin-5 receptor (MC5-R)
T1 sequence (P33032 whole entry): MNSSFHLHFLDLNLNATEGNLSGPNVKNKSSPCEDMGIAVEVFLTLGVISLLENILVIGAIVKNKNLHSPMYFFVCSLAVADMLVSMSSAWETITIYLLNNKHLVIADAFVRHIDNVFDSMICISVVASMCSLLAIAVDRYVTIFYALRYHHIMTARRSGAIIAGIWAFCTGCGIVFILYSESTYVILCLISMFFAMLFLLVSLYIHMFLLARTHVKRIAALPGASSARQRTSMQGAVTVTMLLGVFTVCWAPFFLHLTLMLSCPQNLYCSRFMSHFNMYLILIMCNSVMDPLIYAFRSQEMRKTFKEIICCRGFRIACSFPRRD
Experiment: competition with [125I]-NDP-α-MSH, CHO-K1 membranes
Bridge positions count the residues as written; N and C are the ends. Square brackets hold non-standard residues; d marks the D form. 2Nal = N[C@@H](Cc1ccc2ccccc2c1)C(=O)O; Pen = CC(C)(S)[C@H](N)C(=O)O; Nle = CCCC[C@H](N)C(=O)O; Ava = NCCCCC(=O)O; GABA = NCCCC(=O)O
Each item that follows carries a reported Ki.
The reply should contain only the number, in nM.

Ac-[Nle]CH[dF]RW[GABA][Pen]-NH2 (disulfide 2-8) [Ac-Nle-c(Cys-His-D-Phe-Arg-Trp-Gaba-Pen)-NH2] = 0.42
Ac-[Nle]C[dA]H[dF]RWAC-NH2 (disulfide 2-9) [Ac-Nle-c(Cys-D-Ala-His-D-Phe-Arg-Trp-Ala-Cys)-NH2] = 2860
Ac-[dR]CH[dF]RW[GABA][Pen]-NH2 (disulfide 2-8; SMILES CC(=O)N[C@H](CCCNC(=N)N)C(=O)N[C@H]1CSSC(C)(C)[C@@H](C(N)=O)NC(=O)CCCNC(=O)[C@H](Cc2c[nH]c3ccccc23)NC(=O)[C@H](CCCNC(=N)N)NC(=O)[C@@H](Cc2ccccc2)NC(=O)[C@H](Cc2c[nH]cn2)NC1=O) [Ac-D-Arg-c(Cys-His-D-Phe-Arg-Trp-Gaba-Pen)-NH2] = 538
Ac-[Nle]C[dI]H[dF]RWC-NH2 (disulfide 2-8) [Ac-Nle-c(Cys-D-Ile-His-D-Phe-Arg-Trp-Cys)-NH2] = 12.5
Ac-CEH[dF]R[2Nal]AC-NH2 (disulfide 1-8) [Ac-c(Cys-Glu-His-D-Phe-Arg-2-Nal-Ala-Cys)-NH2] = 1460

Consider the binder shown here: Ac-[Nle]DH[dF]RW[Ava]K-NH2 (lactam 2-8) [Ac-Nle-c(Asp-His-D-Phe-Arg-Trp-Apn-Lys)-NH2] What is its recorded Ki?
431

Recorded Ki of Ac-[Nle]C[dA]H[dF]RWGC-NH2 (disulfide 2-9; SMILES CCCC[C@H](NC(C)=O)C(=O)N[C@H]1CSSC[C@@H](C(N)=O)NC(=O)CNC(=O)[C@H](Cc2c[nH]c3ccccc23)NC(=O)[C@H](CCCNC(=N)N)NC(=O)[C@@H](Cc2ccccc2)NC(=O)[C@H](Cc2c[nH]cn2)NC(=O)[C@@H](C)NC1=O) [Ac-Nle-c(Cys-D-Ala-His-D-Phe-Arg-Trp-Gly-Cys)-NH2] , please.
339

What does the record list as Ki for Ac-CEH[dF]RWAC-NH2 (disulfide 1-8; SMILES CC(=O)N[C@H]1CSSC[C@@H](C(N)=O)NC(=O)[C@H](C)NC(=O)[C@H](Cc2c[nH]c3ccccc23)NC(=O)[C@H](CCCNC(=N)N)NC(=O)[C@@H](Cc2ccccc2)NC(=O)[C@H](Cc2c[nH]cn2)NC(=O)[C@H](CCC(=O)O)NC1=O) [Ac-c(Cys-Glu-His-D-Phe-Arg-Trp-Ala-Cys)-NH2] ?
694

Values from patent US20120135923A1
